- experiment-description: Particle size distribution by laser diffraction (Malvern Master Sizer 2000)
- Format: physicochemical
property-name: Particle Size Distribution d(0.5) (microns)

Observe how each entry below is paired with its result.
{"columns": ["compound", "scale-unit", "readout-value"],
 "data": [
  ["COc1ccccc1Oc1c(NS(=O)(=O)c2ccc(C(C)(C)C)cc2)nc(-c2ncccn2)nc1OCCO [Example 9E, Bosentan]", "microns", 58.84],
  ["COc1ccccc1Oc1c(NS(=O)(=O)c2ccc(C(C)(C)C)cc2)nc(-c2ncccn2)nc1OCCO [Example 9A, Bosentan]", "microns", 28.95],
  ["COc1ccccc1Oc1c(NS(=O)(=O)c2ccc(C(C)(C)C)cc2)nc(-c2ncccn2)nc1OCCO [Example 7, Bosentan]", "microns", 85.61]
]}

(a) COc1ccccc1Oc1c(NS(=O)(=O)c2ccc(C(C)(C)C)cc2)nc(-c2ncccn2)nc1OCCO [Example 9D, Bosentan]
(b) COc1ccccc1Oc1c(NS(=O)(=O)c2ccc(C(C)(C)C)cc2)nc(-c2ncccn2)nc1OCCO [Example 9C, Bosentan]
Input pair: a , b . Output: entry with lower Particle Size Distribution d(0.5). Lab note: record the label of whichever item you select.
b

###

- experiment-description: Particle size distribution by laser diffraction (Malvern Master Sizer 2000)
- Format: physicochemical
property-name: Particle Size Distribution d(0.9) (microns)

{"columns": ["compound", "Particle Size Distribution d(0.9) [microns]"],
 "data": [
  ["COc1ccccc1Oc1c(NS(=O)(=O)c2ccc(C(C)(C)C)cc2)nc(-c2ncccn2)nc1OCCO [Example 9B, Bosentan]", 78.25]
]}

(P) COc1ccccc1Oc1c(NS(=O)(=O)c2ccc(C(C)(C)C)cc2)nc(-c2ncccn2)nc1OCCO [Example 9D, Bosentan]
(Q) COc1ccccc1Oc1c(NS(=O)(=O)c2ccc(C(C)(C)C)cc2)nc(-c2ncccn2)nc1OCCO [Example 7, Bosentan]
Rank P against Q by their Particle Size Distribution d(0.9) values and give the higher one. Lab note: record the label of whichever item you select.
Q
(Q: 231.09 microns, P: 109.61 microns)

(A) COc1ccccc1Oc1c(NS(=O)(=O)c2ccc(C(C)(C)C)cc2)nc(-c2ncccn2)nc1OCCO [Example 9C, Bosentan]
(B) COc1ccccc1Oc1c(NS(=O)(=O)c2ccc(C(C)(C)C)cc2)nc(-c2ncccn2)nc1OCCO [Example 9A, Bosentan]
Rank A against B by their Particle Size Distribution d(0.9) values and give the higher one. Lab note: record the label of whichever item you select.
B
(B: 120.88 microns, A: 69.43 microns)

###

- experiment-description: Tapped density
- Format: physicochemical
property-name: Tapped density (g/mL)

{"columns": ["compound", "scale-unit", "Tapped density"],
 "data": [
  ["COc1ccccc1Oc1c(NS(=O)(=O)c2ccc(C(C)(C)C)cc2)nc(-c2ncccn2)nc1OCCO [Example 5, Bosentan]", "g/mL", 0.626],
  ["COc1ccccc1Oc1c(NS(=O)(=O)c2ccc(C(C)(C)C)cc2)nc(-c2ncccn2)nc1OCCO [Example 4, Bosentan]", "g/mL", 0.714],
  ["COc1ccccc1Oc1c(NS(=O)(=O)c2ccc(C(C)(C)C)cc2)nc(-c2ncccn2)nc1OCCO [Example 3, Bosentan]", "g/mL", 0.668],
  ["COc1ccccc1Oc1c(NS(=O)(=O)c2ccc(C(C)(C)C)cc2)nc(-c2ncccn2)nc1OCCO [Example 6, Bosentan]", "g/mL", 0.667]
]}

Data provenance: patent US20110021547A1
